Provide the reported % UTC (Yap1 mRNA) of each item.
- System: Yap1 mRNA
- assay.comment: Dose-dependent inhibition of human Yap1 in SNU-449 cells (Example 9, RTS36584)
- Type: cell-based
- run.parameters: 125.0 nM, free uptake, approximately 48 hours
Strand notation (5' to 3'): a small letter for the sugar, then the base; units joined by * are phosphorothioate-linked, units joined directly phosphodiester-linked; [ ] holds rarer units or linkages, { } end groups; capitals alone tell only the bases. e = 2'-O-(2-methoxyethyl) (MOE); k = constrained ethyl (cEt); [5mC] = 5-methylcytosine; d = 2'-deoxy (DNA); m = 2'-O-methyl
Give bare numbers, in % UTC.

Answered cases to consult:
1198354 (kA*kA*kG*dT*dG*dT*dA*dT*dG*dT*d[5mC]*dA*kG*eA*kA*eG) [compound 1198354] | 24
1198656 (kG*k[5mC]*dA*d[5mC]*dT*dT*dT*dT*dA*d[5mC]*dA*dT*kT*eA*kG*eG; antisense) [compound 1198656] | 22
1198787 (kA*eG*kT*dG*dT*dA*dT*dG*dT*d[5mC]*dA*dG*eA*eA*kG*kA; antisense) [compound 1198787] | 21
1198786 (kT*eG*kT*dA*dT*dG*dT*d[5mC]*dA*dG*dA*dA*eG*eA*kG*kT) [compound 1198786] | 32
1200857 (kA*kG*kT*dG*dT*mA*dT*dG*dT*d[5mC]*dA*dG*dA*kA*kG*kA; antisense) [compound 1200857] | 30
1200806 (kT*kG*kA*dG*dG*mU*dA*dT*dA*dA*d[5mC]*dT*dG*kG*kG*k[5mC]; antisense) [compound 1200806] | 54

Now for the substance whose % UTC (Yap1 mRNA) we want.
// query What value of measured % UTC (Yap1 mRNA) is listed for 1198412 (kT*dT*dA*dG*dG*dA*dT*dG*d[5mC]*dA*dT*kG*eG*kT*eT*kT; antisense) [compound 1198412] ?
// result 54
